Data origin: ChEMBL document CHEMBL1146191

Measured pIC50 values are reported for all entries that follow.
# Test system: THP-1
# protocol: Inhibition of IL1-beta secretion in human THP1 cells
# Format: functional, cell-based
Recall that pIC50 is obtained by taking minus log10 of the concentration measured in molar.

// solved cases for pIC50 follow
- molecule: "COc1cccc(C(=O)NNC(=O)C2(C(=O)N[C@H]3CC(=O)OC3O)CCC2)c1 (stereo not given in full)"
  pIC50: 6.40
- molecule: "O=C1C[C@H](NC(=O)C2(C(=O)NNC(=O)c3ccc4ccccc4c3)CC2)C(O)O1 (stereo not given in full)"
  pIC50: 5.19
- molecule: "COc1cccc(C(=O)NNC(=O)C2(C(=O)N[C@H]3CC(=O)OC3O)CCCCC2)c1 (stereo not given in full)"
  pIC50: 5.89

Q: Specify pIC50 for COc1cccc(C(=O)NNC(=O)C2(C(=O)N[C@H]3CC(=O)OC3O)CCCC2)c1 (stereo not given in full) and stop.
A: 6.26

Q: Recall and state the measured pIC50 for O=C1C[C@H](NC(=O)C2(C(=O)NNC(=O)c3cccc4ccccc34)CCCC2)C(O)O1 (stereo not given in full) .
A: 6.32

Q: Entry O=C1C[C@H](NC(=O)C2(C(=O)NNC(=O)c3cccc4ccccc34)CCCCC2)C(O)O1 (stereo not given in full) needs its pIC50 filled in; supply it.
A: 6.35

Q: Indicate its recorded pIC50; the molecule in question is O=C1C[C@H](NC(=O)C2(C(=O)NNC(=O)c3ccc4ccccc4c3)Cc3ccccc3C2)C(O)O1 (stereo not given in full)
A: 6.30

====

Quick reference for IC50 among some compounds
# study-system: UniProt:P29466
# protocol: Inhibition of ICE
Provide the reading as a plain figure in nM.

Q: Given the compound COc1cccc(C(=O)NNC(=O)C2(C(=O)N[C@H]3CC(=O)OC3O)CCCCC2)c1 (stereo partly drawn) , write its reported IC50.
A: 240

Q: For the compound O=C1C[C@H](NC(=O)C2(C(=O)NNC(=O)c3ccc4ccccc4c3)CCCCC2)C(O)O1 (stereo partly drawn) , give its measured IC50 value.
A: 90

Q: // fetch IC50 given entry COc1cccc(OC)c1C(=O)NNC(=O)C1(C(=O)N[C@H]2CC(=O)OC2O)CCCCC1 (stereo partly drawn)
A: 700

====

Target chain: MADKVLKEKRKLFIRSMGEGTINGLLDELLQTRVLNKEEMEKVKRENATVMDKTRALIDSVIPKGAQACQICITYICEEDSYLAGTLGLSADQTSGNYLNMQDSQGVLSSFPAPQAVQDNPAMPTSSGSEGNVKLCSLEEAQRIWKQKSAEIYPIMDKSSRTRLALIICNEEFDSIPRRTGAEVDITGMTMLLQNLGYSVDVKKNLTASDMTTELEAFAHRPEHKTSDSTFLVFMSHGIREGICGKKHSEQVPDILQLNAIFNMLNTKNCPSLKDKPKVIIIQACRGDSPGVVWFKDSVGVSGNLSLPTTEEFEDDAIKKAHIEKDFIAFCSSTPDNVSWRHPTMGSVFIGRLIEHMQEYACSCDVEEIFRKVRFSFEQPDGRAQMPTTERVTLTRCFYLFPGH
quantity: pIC50
Note on pIC50: it is the negative log10 of concentration, concentration in mol/L.

- compound: "O=C1C[C@H](NC(=O)C2(C(=O)NNC(=O)c3cccc4ccccc34)CCC2)C(O)O1 (some centres undefined)"
  pIC50: 7.30
- compound: "O=C1C[C@H](NC(=O)C2(C(=O)NNC(=O)c3cccc4ccccc34)CCCC2)C(O)O1 (some centres undefined)"
  pIC50: 7.40
- compound: "O=C1C[C@H](NC(=O)C2(C(=O)NNC(=O)c3ccc4ccccc4c3)Cc3ccccc3C2)C(O)O1 (some centres undefined)"
  pIC50: 7.52
- compound: "O=C1C[C@H](NC(=O)C2(C(=O)NNC(=O)c3ccc4ccccc4c3)CCCC2)C(O)O1 (some centres undefined)"
  pIC50: 6.82
- compound: "O=C1C[C@H](NC(=O)C2(C(=O)NNC(=O)c3ccc4ccccc4c3)CCC2)C(O)O1 (some centres undefined)"
  pIC50: 6.62
- compound: "O=C1C[C@H](NC(=O)C2(C(=O)NNC(=O)c3cccc4ccccc34)Cc3ccccc3C2)C(O)O1 (some centres undefined)"
  pIC50: 7.40

Then there is this compound:
Q: Provide only the value of recorded pIC50 for Cc1cccc(C(=O)NNC(=O)C2(C(=O)N[C@H]3CC(=O)OC3O)Cc3ccccc3C2)c1 (some centres undefined)
A: 6.37

====

# study-system: Caspase-8 (Homo sapiens, UniProt Q14790)
# Sequence (Q14790 217-374 limits assumed): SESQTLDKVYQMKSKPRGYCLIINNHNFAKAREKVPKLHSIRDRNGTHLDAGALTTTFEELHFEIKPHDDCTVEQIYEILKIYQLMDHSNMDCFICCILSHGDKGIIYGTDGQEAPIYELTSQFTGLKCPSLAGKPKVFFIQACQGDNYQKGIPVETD
# Sequence (Q14790 385-479 limits assumed): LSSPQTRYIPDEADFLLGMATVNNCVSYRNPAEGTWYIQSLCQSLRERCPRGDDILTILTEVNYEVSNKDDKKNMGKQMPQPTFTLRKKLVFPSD
I'd appreciate it if you marked entries True when IC50 is lower than 3000 nM and False when it is not.

- compound: "O=C1C[C@H](NC(=O)C2(C(=O)NNC(=O)c3cccc4ccccc34)CCCC2)C(O)O1 (stereo partly specified)"
  assigned-label: "True"

Q: Consider O=C1C[C@H](NC(=O)C2(C(=O)NNC(=O)c3ccc4ccccc4c3)Cc3ccccc3C2)C(O)O1 (stereo partly specified) . Does its IC50 lie strictly below 3000 nM?
A: True

Q: State whether 3000 nM exceeds IC50 recorded for Cc1ccccc1C(=O)NNC(=O)C1(C(=O)N[C@H]2CC(=O)OC2O)CCC1 (stereo partly specified) .
A: True

Q: Please determine if O=C1C[C@H](NC(=O)C2(C(=O)NNC(=O)c3ccc4ccccc4c3)CCCCC2)C(O)O1 (stereo partly specified) is below 3000 nM in terms of IC50.
A: True

Q: Dear reviewer, please state whether Cc1cccc(C(=O)NNC(=O)C2(C(=O)N[C@H]3CC(=O)OC3O)CCCC2)c1 (stereo partly specified) has IC50 strictly beneath 3000 nM.
A: True

Q: Please check: IC50 for O=C1C[C@H](NC(=O)C2(C(=O)NNC(=O)c3cccc4ccccc34)CCCCC2)C(O)O1 (stereo partly specified) , strictly under 3000 nM or not?
A: True

Q: Please indicate whether the reported IC50 of Cc1cccc(C(=O)NNC(=O)C2(C(=O)N[C@H]3CC(=O)OC3O)CCC2)c1 (stereo partly specified) is strictly below 3000 nM.
A: True

Q: Lab note: confirm whether the reported IC50 for this compound is below 3000 nM, equality not counting. compound: Cc1cccc(C(=O)NNC(=O)C2(C(=O)N[C@H]3CC(=O)OC3O)CCCCC2)c1 (stereo partly specified)
A: False

Q: # TODO verify IC50 < 3000 nM strictly for this compound: Cc1cccc(C(=O)NNC(=O)C2(C(=O)N[C@H]3CC(=O)OC3O)Cc3ccccc3C2)c1 (stereo partly specified)
A: False

Q: IC50 strictly < 3000 nM for this compound? O=C1C[C@H](NC(=O)C2(C(=O)NNC(=O)c3ccc4ccccc4c3)CCCC2)C(O)O1 (stereo partly specified)
A: False

Q: Threshold test, IC50 < 3000 nM: COc1cccc(C(=O)NNC(=O)C2(C(=O)N[C@H]3CC(=O)OC3O)CCCCC2)c1 (stereo partly specified)
A: True

====

Recorded pIC50 for the following molecules
# Test system: THP-1
# protocol: Inhibition of IL1-beta secretion in human THP1 cells
# Assay type: functional, cell-based
Notebook: values listed as pIC50 are -log10 of the concentration (mol/L).

- molecule: "O=C1C[C@H](NC(=O)C2(C(=O)NNC(=O)c3ccc4ccccc4c3)CCCCC2)C(O)O1 (stereo partly drawn)"
  study-system: "THP-1"
  pIC50: 6.10
- molecule: "Cc1ccccc1C(=O)NNC(=O)C1(C(=O)N[C@H]2CC(=O)OC2O)CCC1 (stereo partly drawn)"
  study-system: "THP-1"
  pIC50: 6.21
- molecule: "O=C1C[C@H](NC(=O)C2(C(=O)NNC(=O)c3cccc4ccccc34)Cc3ccccc3C2)C(O)O1 (stereo partly drawn)"
  study-system: "THP-1"
  pIC50: 6.16
- molecule: "Cc1ccc(C(=O)NNC(=O)C2(C(=O)N[C@H]3CC(=O)OC3O)CCC2)cc1 (stereo partly drawn)"
  study-system: "THP-1"
  pIC50: 5.16
- molecule: "Cc1cccc(C(=O)NNC(=O)C2(C(=O)N[C@H]3CC(=O)OC3O)CCC2)c1 (stereo partly drawn)"
  study-system: "THP-1"
  pIC50: 6.21
- molecule: "O=C1C[C@H](NC(=O)C2(C(=O)NNC(=O)c3cccc4ccccc34)CCC2)C(O)O1 (stereo partly drawn)"
  study-system: "THP-1"
  pIC50: 6.33

Q: Look up pIC50 of Cc1cccc(C(=O)NNC(=O)C2(C(=O)N[C@H]3CC(=O)OC3O)CCCCC2)c1 (stereo partly drawn) and report it.
A: 6.33

Q: Supply measured pIC50 of O=C1C[C@H](NC(=O)C2(C(=O)NNC(=O)c3ccc4ccccc4c3)CCCC2)C(O)O1 (stereo partly drawn) in your reply.
A: 6.24

Q: Note pIC50 for the molecule shown: Cc1cccc(C(=O)NNC(=O)C2(C(=O)N[C@H]3CC(=O)OC3O)CCCC2)c1 (stereo partly drawn)
A: 5.70
